So I've got a bunch of molecules here, and I need their IC50 values.
- Test system: SOS1 (Homo sapiens)
- Sequence (Q07889 1-1333): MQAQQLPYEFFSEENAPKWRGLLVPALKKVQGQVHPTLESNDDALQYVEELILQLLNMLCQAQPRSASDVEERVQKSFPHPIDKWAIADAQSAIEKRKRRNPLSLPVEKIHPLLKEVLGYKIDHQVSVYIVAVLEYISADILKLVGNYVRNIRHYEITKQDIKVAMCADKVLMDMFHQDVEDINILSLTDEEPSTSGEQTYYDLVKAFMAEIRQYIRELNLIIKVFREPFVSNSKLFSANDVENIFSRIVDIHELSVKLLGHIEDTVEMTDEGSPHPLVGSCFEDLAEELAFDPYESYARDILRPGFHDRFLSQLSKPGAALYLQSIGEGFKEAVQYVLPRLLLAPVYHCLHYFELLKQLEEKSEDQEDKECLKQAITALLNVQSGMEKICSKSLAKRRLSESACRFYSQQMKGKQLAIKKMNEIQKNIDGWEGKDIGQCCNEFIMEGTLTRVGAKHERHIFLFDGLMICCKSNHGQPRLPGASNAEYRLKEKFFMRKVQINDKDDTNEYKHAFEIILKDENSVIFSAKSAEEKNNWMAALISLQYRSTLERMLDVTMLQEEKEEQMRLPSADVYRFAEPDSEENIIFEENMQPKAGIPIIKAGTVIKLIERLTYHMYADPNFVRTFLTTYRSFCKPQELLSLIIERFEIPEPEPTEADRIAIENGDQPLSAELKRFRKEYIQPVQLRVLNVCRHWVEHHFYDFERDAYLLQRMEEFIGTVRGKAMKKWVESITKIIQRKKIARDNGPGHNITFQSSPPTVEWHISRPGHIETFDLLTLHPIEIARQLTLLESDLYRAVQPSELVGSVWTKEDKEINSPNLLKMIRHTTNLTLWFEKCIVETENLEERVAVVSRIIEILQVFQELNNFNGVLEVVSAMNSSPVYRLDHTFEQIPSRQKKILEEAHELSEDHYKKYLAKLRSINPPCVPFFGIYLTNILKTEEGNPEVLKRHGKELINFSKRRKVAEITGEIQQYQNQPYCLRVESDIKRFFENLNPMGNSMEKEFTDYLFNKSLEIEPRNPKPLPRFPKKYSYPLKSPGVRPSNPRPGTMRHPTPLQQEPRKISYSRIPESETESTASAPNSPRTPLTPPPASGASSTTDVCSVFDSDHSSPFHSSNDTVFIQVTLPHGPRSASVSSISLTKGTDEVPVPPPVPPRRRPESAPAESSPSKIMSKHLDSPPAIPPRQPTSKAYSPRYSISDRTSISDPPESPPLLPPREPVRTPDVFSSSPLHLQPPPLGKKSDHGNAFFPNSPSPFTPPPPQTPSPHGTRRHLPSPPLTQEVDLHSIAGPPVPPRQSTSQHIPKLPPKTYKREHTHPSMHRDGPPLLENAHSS
Answer in nM, number only, no unit symbol.

Consider the molecule C[C@@H](Nc1nnc(N2CCC(F)(F)C2)c2cc(=O)n(C3(C)CC3)cc12)c1cccc(C(F)F)c1F [Example 26] and give its measured IC50.
18.8

Value lookup for IC50; key = Cc1c([C@@H](C)Nc2nnc(N3CCN(C4CCCC4)CC3)c3cc(=O)n(C4(C)CC4)cc23)cccc1C(F)(F)F [Example 96]
7.4

Bench note: what IC50 did C[C@@H](Nc1nnc(N2CCN(CC3CC3)CC2)c2cc(=O)n(C3(C)CC3)cc12)c1cccc(C(F)F)c1F [Example 219] show?
4.7

What value of measured IC50 is listed for CCN1CCN(c2nnc(N[C@H](C)c3cccc(C(F)(F)F)c3C)c3cn(C4(C)CC4)c(=O)cc23)CC1 [Example 104] ?
7.5

###

Would you kindly list pIC50 for each of these compounds?
- Test system: SOS1 (Homo sapiens, UniProt Q07889)
- Sequence (Q07889 1-1333): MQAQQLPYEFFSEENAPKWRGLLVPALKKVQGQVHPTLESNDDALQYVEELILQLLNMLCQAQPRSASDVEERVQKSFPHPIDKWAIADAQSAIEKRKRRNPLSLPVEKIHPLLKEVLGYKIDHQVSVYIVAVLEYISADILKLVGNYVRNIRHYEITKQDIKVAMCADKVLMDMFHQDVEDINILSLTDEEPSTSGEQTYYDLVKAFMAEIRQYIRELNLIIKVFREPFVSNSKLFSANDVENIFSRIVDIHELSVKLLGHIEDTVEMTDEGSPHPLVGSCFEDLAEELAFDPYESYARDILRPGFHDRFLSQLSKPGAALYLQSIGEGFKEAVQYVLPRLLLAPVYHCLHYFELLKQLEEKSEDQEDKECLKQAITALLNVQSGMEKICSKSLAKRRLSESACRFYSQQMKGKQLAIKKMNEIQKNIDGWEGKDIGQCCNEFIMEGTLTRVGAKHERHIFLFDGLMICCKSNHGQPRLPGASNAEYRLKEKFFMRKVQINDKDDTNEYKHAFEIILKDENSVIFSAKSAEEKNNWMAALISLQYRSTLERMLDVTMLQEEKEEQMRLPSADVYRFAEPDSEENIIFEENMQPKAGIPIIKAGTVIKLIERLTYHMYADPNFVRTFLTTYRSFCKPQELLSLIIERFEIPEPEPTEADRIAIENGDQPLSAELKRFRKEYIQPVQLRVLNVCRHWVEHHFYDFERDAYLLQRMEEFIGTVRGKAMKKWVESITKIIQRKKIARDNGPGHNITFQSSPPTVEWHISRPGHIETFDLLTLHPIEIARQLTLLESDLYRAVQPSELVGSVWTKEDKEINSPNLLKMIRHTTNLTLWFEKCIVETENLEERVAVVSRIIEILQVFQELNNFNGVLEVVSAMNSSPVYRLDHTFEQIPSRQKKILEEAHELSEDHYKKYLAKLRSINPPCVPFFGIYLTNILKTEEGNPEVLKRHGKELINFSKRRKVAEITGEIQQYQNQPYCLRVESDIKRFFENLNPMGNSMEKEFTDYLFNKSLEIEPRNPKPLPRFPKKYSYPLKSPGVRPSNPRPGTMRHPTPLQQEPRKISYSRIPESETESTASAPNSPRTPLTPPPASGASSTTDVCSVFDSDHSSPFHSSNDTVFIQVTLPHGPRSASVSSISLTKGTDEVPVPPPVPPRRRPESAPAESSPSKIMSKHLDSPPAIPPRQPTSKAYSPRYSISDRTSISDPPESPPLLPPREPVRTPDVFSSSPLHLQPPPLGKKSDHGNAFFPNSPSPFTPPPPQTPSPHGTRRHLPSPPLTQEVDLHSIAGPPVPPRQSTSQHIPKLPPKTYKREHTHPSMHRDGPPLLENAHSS
Where a name gives a salt, the structure may show the parent alone.
# reply with the number alone; pIC50 is -log10 of concentration in mol/L

What measured pIC50 goes with `Cc1cc(N)cc([C@@H](C)Nc2nnc(N3CCN(C(C)C)CC3)c3cc(=O)n(C4(C)CC4)cc23)c1F` ?
8.28

Endpoint output: pIC50 of `C[C@@H](Nc1nnc(N2CC3(CCC3)C2)c2cc(=O)n(C3(C)CC3)cc12)c1cccc(C(F)F)c1F` . Value?
8.35

Look up pIC50 for this compound: CC(C)N1CCN(c2nnc(N[C@H](C)c3cccc(C(F)F)c3F)c3cn(N4CC5CCCC5C4)c(=O)cc23)CC1 (stereo partly shown)
8.07

Requested read-out: pIC50. Entry: C[C@@H](Nc1nnc(N2CCN(C)[C@@H](C)C2)c2cc(=O)n(C3(C)CC3)cc12)c1cccc(C(F)(F)F)c1 [Example 180, formate]
8.14

Any idea what its pIC50 is? The compound is C[C@@H]1CN(c2nnc(N[C@H](C)c3cccc(C(F)(F)F)c3)c3cn(C4(C)CC4)c(=O)cc23)CCN1C [Example 176, formate]
8.22

Return reported pIC50; argument: `C[C@@H](Nc1nnc(N2CC3(CCOCC3)C2)c2cc(=O)n(C3(C)CC3)cc12)c1cccc(C(F)F)c1F`
8.30

I'd like to know its pIC50. The compound in question is `C[C@@H](Nc1nnc(NC2COC2)c2cc(=O)n(C3(C)CC3)cc12)c1cccc(C(F)F)c1F`
8.39

###

Structures can show the parent of a compound that is named as a salt.
Could you please report measured pIC50 for the items listed next?
On this scale, pIC50 is minus log10 of a concentration expressed in M (mol/L).

GET /values?readout=pIC50&system=SOS1 (Homo sapiens)&item= CCN1CCN(c2nnc(N[C@H](C)c3cccc(C(F)F)c3F)c3cn(N4CCOCC4)c(=O)cc23)CC1 [Example 109]
8.38

Give SOS1 (Homo sapiens) pIC50 for CC(C)N1CCN(c2nnc(N[C@H](C)c3cccc(C(F)(F)F)c3)c3cn(C4(C)CC4)c(=O)cc23)CC1 [Example 155, formate]
8.25

Value wanted: pIC50 (SOS1 (Homo sapiens)) of entry C[C@@H](Nc1nnc(N2CCNCC2)c2cc(=O)n(C3(C)CC3)cc12)c1cccc(C(F)F)c1F [Example 78]
8.34

# query: pIC50 | item Cc1c([C@@H](C)Nc2nnc(N3CCC(F)(F)C3)c3cc(=O)n(C4CC4)cc23)cccc1C(F)(F)F [Example 55] | system: SOS1 (Homo sapiens)
7.31
